- assayed system: Tyrosinase (Agaricus bisporus, UniProt O42713)
- Sequence (O42713 whole entry): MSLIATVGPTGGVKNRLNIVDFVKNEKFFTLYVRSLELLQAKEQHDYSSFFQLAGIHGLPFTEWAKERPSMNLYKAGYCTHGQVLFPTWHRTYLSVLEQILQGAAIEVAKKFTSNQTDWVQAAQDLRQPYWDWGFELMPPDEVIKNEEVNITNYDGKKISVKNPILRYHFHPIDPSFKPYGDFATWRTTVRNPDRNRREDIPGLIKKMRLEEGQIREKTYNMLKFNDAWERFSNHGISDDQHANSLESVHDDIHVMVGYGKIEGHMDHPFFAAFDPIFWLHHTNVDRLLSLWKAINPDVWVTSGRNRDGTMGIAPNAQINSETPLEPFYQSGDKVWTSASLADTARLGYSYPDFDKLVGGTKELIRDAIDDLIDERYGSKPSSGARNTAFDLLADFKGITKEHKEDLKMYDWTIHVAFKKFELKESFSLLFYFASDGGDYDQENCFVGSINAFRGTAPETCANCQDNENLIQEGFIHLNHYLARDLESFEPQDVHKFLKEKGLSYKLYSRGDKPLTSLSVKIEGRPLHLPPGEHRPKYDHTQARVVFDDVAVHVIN
endpoint name: log10 IC50 (log10 of the value in µM)
Kindly note that the scale is log10 and the underlying IC50 is in µM.

Known log10 IC50 results, listed for orientation:
{"columns": ["smiles entry", "log10 IC50"],
 "data": [
  ["O=C(NCc1ccc(O)cc1O)c1cc(O)c(O)c(O)c1", 1.23],
  ["O=C(NCc1ccc(O)cc1)c1cc(O)c(O)c(O)c1", 3.07],
  ["O=C(NCc1cc(O)c(O)c(O)c1)c1cc(O)cc(O)c1", 2.85]
]}

Would you be so kind as to report log10 IC50 for each listed record?
1. O=C(NCc1ccc(O)cc1)c1ccc(O)cc1O
2. O=C(NCc1ccc(O)cc1O)c1ccc(O)c(O)c1
3. O=C(NCc1cc(O)c(O)c(O)c1)c1ccc(O)cc1O
4. O=C(NCc1ccccc1)c1ccc(O)cc1O

Response line:
1: 3.26; 2: 1.04; 3: 2.74; 4: 3.22
